- System: OVCAR-3 ovarian
- assay.remarks: NCI tumour cell line growth inhibition, 48 h; in the data active = GI50 below about 0.43 µM; inactive = the rest
The reply should name one outcome from active, inactive

What is the recorded call for this molecule in the test? "COC(=O)[C@]12CC[C@@H](C)[C@H](C)[C@@H]1C1=CC[C@@H]3[C@@]4(C)C/C(=N\O)[C@H](O)[C@@]5(C)COC(=C45)C[C@@]3(C)[C@]1(C)CC2"
inactive

// param item: C[C@@H]1OC(O)[C@@H](F)[C@H](O)[C@@H]1O (stereo partly specified) ; yields the recorded call
inactive

Would you mind telling me which call this test gave "NC(=O)c1ccc(I)c(N)c1" ?
inactive

Assay result, entry "CN1CCN(C(=O)OCc2nc3c(N4CCOCC4)nc(Cl)nc3n2C)CC1" — outcome?
inactive

Call for entry "CC[C@]1(O)C[C@@H]2CN(CCc3c([nH]c4ccccc34)[C@@](C(=O)OC)(c3cc4c(cc3OC)N(C)[C@H]3[C@@](O)(C(=O)OC)[C@H](OC(C)=O)[C@]5(CC)C=CCN6CC[C@]43[C@@H]65)C2)C1" :
active

Hi, do you know how "O=C(N/N=C/c1ccccc1O)c1ccccc1Nc1ccnc(C(F)(F)F)c1" came out in this test?
inactive

Assay result, entry "Cc1ccc(NC(=O)c2cccc(N(C)C)c2)cc1NC(=O)c1ccc(O)cc1" — outcome?
inactive

Hi team, can someone confirm the assay call for "C=CCCCCCCCCC(=O)[O][Sn]([CH2]CCC)([CH2]CCC)[CH2]CCC" ?
active

Lab log entry: COc1cc(C2NC(=O)c3ccccc3N2)ccc1OCCCCCOc1c(OC)cc(C2=NOC(c3cc(OC)c(OC)c(OC)c3)C2)cc1OC (stereo unspecified) — outcome as called in the assay?
inactive

What outcome does the record of this test show for "CCC[CH2][Sn]1([CH2]CCC)[O]Cc2nc(C)ccc2[O]1" ?
inactive

// return assay outcome for "O=C1CCCCN1CCCCC#Cc1ccccc1C#Cc1ccc([N+](=O)[O-])cc1"
inactive

----------
- Tested on: OVCAR-3 ovarian
- assay.remarks: NCI tumour cell line growth inhibition, 48 h
Parameter threshold = 10 µM. Response is yes (1) when TGI meets or exceeds it, else no (0).

For this compound, is measured TGI 10 µM or higher? "O=c1c2ccccc2nc(Nc2cccc(Cl)c2)n1/N=C/C=C/c1ccccc1"
yes (1)

Has COC(=O)/C(=N/NC(=O)C[N+](C)(C)C)C(C(=O)OC)C(=O)C(=O)Nc1ccc(F)cc1 (centres undefined) a recorded TGI greater than or equal to 10 µM?
yes (1)

Given the entry "CNC(=O)N(CCC#N)[C@H]1CCCC[C@@H]1N(C(=O)NC)c1ccccc1" , answer whether its TGI meets or surpasses 10 µM.
yes (1)

Does the compound "O=C(/C(Br)=C/c1ccccc1)c1ccccc1" have recorded TGI that is 10 µM or more?
no (0)

Exam item: decide whether the reported TGI for "FC(F)(F)c1cccc(Nc2nccc(-c3cnn4nc(-c5ccccc5)ccc34)n2)c1" is at least 10 µM.
yes (1)

Record "C=C1C(=O)O[C@H]2[C@H]1CC/C(Cn1cc(-c3ccc(OC)cc3)nn1)=C\CC[C@@]1(C)O[C@@H]21" ; criterion: TGI no lower than 10 µM. Met?
no (0)

Could you verify whether the entry "CC[C@@]1(O)C(=O)OCc2c1cc1n(c2=O)Cc2c-1nc1cc3c(cc1c2CCl)OCO3" shows TGI of no less than 10 µM?
no (0)

Say whether CC(C)(C)[Si](C)(C)OCC1OC(n2cnc3c(N)ncnc32)C(O[Si](C)(C)C(C)(C)C)C1O[Si](C)(C)C(C)(C)C (centres undefined) shows TGI of 10 µM or more.
yes (1)

Test whether the compound "Cc1c2ncccc2cc2oc3ccccc3c(=O)c12" records TGI of 10 µM or higher.
yes (1)
